system: Candida albicans MTCC 227; assay: Antifungal activity, Muller Hinton Broth dilution MIC; assay type: cell-based; conditions: Candida albicans MTCC 227; Muller Hinton Broth dilution; Sabouraud's dextrose broth, 28 °C, aerobic, 48 hours; triplicate experiments
Residues, ends and D or L forms follow the SMILES beside them.
Lab note - cut at 50 µg/mL for MIC (anti-fungicidal activity) C. a.: fulfilled if strictly below, not fulfilled if not.

Please determine if C[C@H](N)C(=O)N[C@@H](CS)C(=O)N1CCC[C@H]1C(=O)N[C@@H](Cc1c[nH]cn1)C(=O)N[C@@H](CCCNC(=N)N)C(=O)N[C@@H](CS)C(=O)O [Compound 7b, H-Ala-Cys-Pro-His-Arg-Cys-OH] (H-ACPHRC-OH) is below 50 µg/mL in terms of MIC (anti-fungicidal activity) C. a.. not fulfilled

Does N=C(N)NCCC[C@H](NC(=O)[C@H](Cc1c[nH]cn1)NC(=O)[C@@H]1CCCN1C(=O)[C@H](CS)NC(=O)CN)C(=O)N[C@@H](CS)C(=O)O [Compound 7a, H-Gly-Cys-Pro-His-Arg-Cys-OH] (H-GCPHRC-OH) have MIC (anti-fungicidal activity) C. a. strictly under 50 µg/mL? not fulfilled

Determine if CC(C)[C@H](N)C(=O)N[C@@H](CS)C(=O)N1CCC[C@H]1C(=O)N[C@@H](Cc1c[nH]cn1)C(=O)N[C@@H](CCCNC(=N)N)C(=O)N[C@@H](CS)C(=O)O [Compound 7c, H-Val-Cys-Pro-His-Arg-Cys-OH] (H-VCPHRC-OH) shows MIC (anti-fungicidal activity) C. a. strictly lower than 50 µg/mL. fulfilled

More entries:
MIC (anti-fungicidal activity) C. a. under 50 µg/mL? Item: C[C@@H]1[C@H](O)[C@@H](C)/C=C/C=C/CC/C=C/C=C/C=C/C=C/C(O[C@H]2O[C@H](C)[C@@H](O)[C@H](N)[C@@H]2O)CC2O[C@](O)(CC(O)C(O)CCC(O)CC(O)CC(O)CC(=O)O[C@H]1C)CC(O)C2C(=O)O (stereo partly shown) [Nystatin, reference compound] not fulfilled

Problem: For the compound CC(C)C[C@H](N)C(=O)N[C@@H](CS)C(=O)N1CCC[C@H]1C(=O)N[C@@H](Cc1c[nH]cn1)C(=O)N[C@@H](CCCNC(=N)N)C(=O)N[C@@H](CS)C(=O)O [Compound 7d, H-Leu-Cys-Pro-His-Arg-Cys-OH] (H-LCPHRC-OH) , is MIC (anti-fungicidal activity) C. a. under 50 µg/mL? fulfilled

Here's an entry: N=C(N)NCCC[C@H](NC(=O)[C@H](Cc1c[nH]cn1)NC(=O)[C@@H]1CCCN1C(=O)[C@H](CS)NC(=O)[C@@H](N)Cc1ccc(O)cc1)C(=O)N[C@@H](CS)C(=O)O [Compound 7f, H-Tyr-Cys-Pro-His-Arg-Cys-OH] (H-YCPHRC-OH) . Is its MIC (anti-fungicidal activity) C. a. below 50 µg/mL? fulfilled
